# MEASUREMENT NOTES: CCTE_Padilla_ZF_Score.Position: CCTE's 144 Hour Post-fertilization zebrafish Assay Score for Position, Padilla Lab (AID 2284409)
The source made the active and inactive calls. The calls were made as follows: active = hit-call score of the fitted dose curve at least 0.9, where 1 is the maximum; inactive = score below 0.9.
Can you answer with just one of these options? T (active), F (inactive)

{"columns": ["STRUCTURE NOTATION", "CLASS NAME"],
 "data": [
  ["NS(=O)(=O)C(F)(F)C(F)(F)C(F)(F)C(F)(F)C(F)(F)C(F)(F)C(F)(F)C(F)(F)F", "F"],
  ["O=C(O)C(F)(F)C(F)(F)C(F)(F)C(F)(F)C(F)(F)C(F)(F)C(F)(F)C(F)(F)F", "T"],
  ["O=C(O)C(F)(F)C(F)(F)C(F)(F)C(F)(F)C(F)(F)C(F)(F)C(F)(F)C(F)(F)C(F)(F)F", "F"]
]}

Proceed to the following item.
Input: Status in this test for O=C(O)C(F)(F)C(F)(F)C(F)(F)C(F)(F)C(F)(F)F ?
Output: F
